- TGT: human EGFR L858R/T790M (NIH/3T3 cells) (Homo sapiens, UniProt P00533, L858R/T790M)
- Sequence (P00533 25-1210 T790M/L858R): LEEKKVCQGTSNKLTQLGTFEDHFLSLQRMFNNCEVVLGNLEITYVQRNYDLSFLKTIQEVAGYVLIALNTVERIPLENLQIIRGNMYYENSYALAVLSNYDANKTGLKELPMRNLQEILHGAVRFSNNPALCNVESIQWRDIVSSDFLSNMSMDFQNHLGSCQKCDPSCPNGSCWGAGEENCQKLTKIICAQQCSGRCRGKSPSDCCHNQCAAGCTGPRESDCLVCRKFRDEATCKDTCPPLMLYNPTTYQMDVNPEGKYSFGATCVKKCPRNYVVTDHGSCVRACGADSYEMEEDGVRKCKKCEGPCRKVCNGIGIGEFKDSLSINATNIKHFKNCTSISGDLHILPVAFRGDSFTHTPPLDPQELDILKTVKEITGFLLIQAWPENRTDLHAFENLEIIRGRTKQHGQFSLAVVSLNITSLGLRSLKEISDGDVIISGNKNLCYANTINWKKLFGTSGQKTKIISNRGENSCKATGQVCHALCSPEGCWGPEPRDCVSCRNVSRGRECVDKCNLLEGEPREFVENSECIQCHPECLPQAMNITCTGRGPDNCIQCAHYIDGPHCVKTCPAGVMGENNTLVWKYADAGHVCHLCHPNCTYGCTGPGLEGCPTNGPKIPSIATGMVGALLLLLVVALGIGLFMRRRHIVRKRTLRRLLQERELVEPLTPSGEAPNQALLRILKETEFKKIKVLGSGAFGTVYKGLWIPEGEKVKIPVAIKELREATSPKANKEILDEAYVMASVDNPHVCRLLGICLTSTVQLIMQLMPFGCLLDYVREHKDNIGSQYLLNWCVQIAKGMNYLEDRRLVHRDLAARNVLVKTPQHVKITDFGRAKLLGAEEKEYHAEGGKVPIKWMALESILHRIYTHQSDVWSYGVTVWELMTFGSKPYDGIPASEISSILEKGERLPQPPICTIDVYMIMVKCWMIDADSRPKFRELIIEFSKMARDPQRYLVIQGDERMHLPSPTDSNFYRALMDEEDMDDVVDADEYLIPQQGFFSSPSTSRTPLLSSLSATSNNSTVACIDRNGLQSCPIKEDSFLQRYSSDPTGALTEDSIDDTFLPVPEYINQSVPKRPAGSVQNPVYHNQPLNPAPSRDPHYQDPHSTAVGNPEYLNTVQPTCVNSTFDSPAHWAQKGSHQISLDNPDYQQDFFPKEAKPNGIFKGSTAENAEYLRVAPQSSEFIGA
- METHOD_NOTES: EGFR target modulation in engineered NIH/3T3 cell lines (phospho-EGFR Y1068 AlphaLISA), EGFR L858R/T790M
- Type: cell-based
- COND: engineered NIH/3T3 cells, read-out: NIH3T3 IC50 (μM) EGFR (L858R/T790M)
VALUE_TYPE: log10 of IC50 (log10 of the value in µM)

* COc1cc(C(=O)Nc2nc3cccc(C)c3n2[C@@H]2CCCCN(C(=O)/C=C/CN(C)C)C2)ccn1 [Example 17-71] | -2.70
* C=CC(=O)N1CCCC(n2c(NC(=O)c3cccc(C(F)(F)F)c3)nc3cnccc32)C1 (centres unmarked) [Example 17-8] | -0.43
* CN(C)C/C=C/C(=O)N1CCCCC(n2c(NC(=O)c3cccc(C(F)(F)F)c3)nc3cc(CO)cc(C#N)c32)C1 (centres unmarked) [Example 17-116] | -2.10
* C=CC(=O)N1CCCC[C@@H](n2c(NC(=O)c3ccccc3)nc3cc(CN4CCCC4)cc(C)c32)C1 [Example 17-111] | -3.00
* Cc1cccc2nc(NC(=O)c3ccnc(-n4cnnn4)c3)n(C3CCCCN(C(=O)/C=C/CN(C)C)C3)c12 (centres unmarked) [Example 17-60] | -2.70
* C=CC(=O)N1CCCC[C@@H](n2c(NC(=O)c3ccnc(C)c3)nc3cc(CN4CC[C@H](O)C4)cc(C)c32)C1 [Example 17-146] | -2.40
* Cc1nccc(C(=O)Nc2nc3cccc(C)c3n2C2CCCCN(C(=O)/C=C/CN(C)C)C2)n1 (centres unmarked) [Example 17-54] | -1.39
* C=CC(=O)N1CCC[C@@H](n2c(NC(=O)c3cccc(C(F)(F)F)c3)nc3cc(C(N)=O)ccc32)C1 [Example 19] | -1.59
* C=CC(=O)N1CCCC(n2c(NC(=O)c3cccc(C(F)(F)F)c3)nc3c2CN(C(=O)OC)CC3)C1 (centres unmarked) [Example 17-170] | -2.00
* C=CC(=O)N1CCC[C@@H](n2c(NC(=O)c3cccc(C(F)(F)F)c3)nc3cc(CN4CCCCC4)ccc32)C1 [Example 17-118] | -2.30

---

- TGT: EGFR(L858R/T790M) (Homo sapiens, UniProt P00533, L858R/T790M)
- Construct: purchased from Carna (GST-a.a. 669-1210)
- Sequence (P00533 669-1210 T790M/L858R): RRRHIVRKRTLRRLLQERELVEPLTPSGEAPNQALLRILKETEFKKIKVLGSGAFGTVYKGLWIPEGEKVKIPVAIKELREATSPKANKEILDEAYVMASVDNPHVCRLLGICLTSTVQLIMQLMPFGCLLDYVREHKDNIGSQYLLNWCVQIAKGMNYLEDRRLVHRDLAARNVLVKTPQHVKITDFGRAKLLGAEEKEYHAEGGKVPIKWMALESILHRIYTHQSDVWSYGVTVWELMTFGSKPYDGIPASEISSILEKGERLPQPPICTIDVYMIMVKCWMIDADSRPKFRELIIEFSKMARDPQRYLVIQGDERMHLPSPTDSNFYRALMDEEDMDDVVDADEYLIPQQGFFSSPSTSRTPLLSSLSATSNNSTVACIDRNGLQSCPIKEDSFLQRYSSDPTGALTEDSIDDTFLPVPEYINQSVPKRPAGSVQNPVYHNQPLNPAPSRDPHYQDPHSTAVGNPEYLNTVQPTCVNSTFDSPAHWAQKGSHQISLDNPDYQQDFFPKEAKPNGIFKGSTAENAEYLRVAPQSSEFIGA
- METHOD_NOTES: EGFR biochemical assay (HTRF), IC50 determinations
- COND: EGFR (L858R/T790M) with no pre-incubation; read-out: IC50 (μM) Column A
- Method: All EGFR biochemical assays were carried out by HTRF method. […] The substrate peptide Biotin-TK-peptide was purchased from Cis-Bio. […] All reactions were carried out at room temperature in white ProxiPlate™ 384-well Plus plates (PerkinElmer) and were quenched with 5 μL of 0.2 M EDTA at 60 min. Five L of the detection reagents (2.5 ng PT66K and 0.05 μg SAXL per well) were added, the plates were incubated at room temperature for 1 h and then read in EnVision reader. […]
Attribute: IC50
VALUE_TYPE: IC50 (µM)

• C=CC(=O)N1CCCC[C@@H](n2c(NC(=O)c3cc(C)nc(C)c3)nc3cc(CN4CCN(C)C(=O)C4)cc(C)c32)C1 [Example 17-180] = 0.003
• O=C(Nc1nc2cccc(Cl)c2n1[C@@H]1CCCCN(C(=O)/C=C/CN2CCCC2)C1)c1ccnnc1 [Example 3-8] = 0.009
• C=CC(=O)N1CCC[C@@H](n2c(NC(=O)c3cccc(C(F)(F)F)c3)nc3cc(CN4CCOCC4)ccc32)C1 [Example 17-112] = 0.04
• C=CC(=O)N1CCCC(n2c(NC(=O)c3cccc(C(F)(F)F)c3)nc3c2CCN(C(C)=O)C3)C1 (centres unmarked) [Example 17-169] = 1.75
• Cc1cc(C(=O)Nc2nc3cccc(Cl)c3n2[C@@H]2CCCCN(C(=O)/C=C/CN3CC[C@H](F)C3)C2)ccn1 [Example 3-2] = 0.007
• C=CC(=O)N1CCC(n2c(NC(=O)c3cccc(C(F)(F)F)c3)nc3cc(C)ccc32)C1 (centres unmarked) [Example 17-98] = 0.84
• C=CC(=O)N1CCCC[C@@H](n2c(NC(=O)c3ccnnc3)nc3cccc(Cl)c32)C1 [Example 17-15] = 0.012
• Cc1cc(C(=O)Nc2nc3cccc(Cl)c3n2[C@@H]2CCCCN(C(=O)/C=C/CN(C)C)C2)cc(P(C)(C)=O)n1 [Example 17-182] = 0.472
• Cc1ncc(C(=O)Nc2nc3cccc(C)c3n2C2CCCCN(C(=O)/C=C/CN(C)C)C2)s1 (single isomer, unassigned) [Example 21-8A] = 0.62
• C/C=C/C(=O)N1CCCC[C@@H](n2c(NC(=O)c3ccnc(C)c3)nc3cc(CN4CC[C@@H](OC)C4)cc(C)c32)C1 [Example 17-163] = 0.07
• Cc1cc(C(=O)Nc2nc3cccc(Cl)c3n2[C@@H]2CCCCN(C(=O)/C=C/CN3CC[C@@H](F)C3)C2)ccn1 [Example 3-1] = 0.005
• C/C=C/C(=O)N1CC(n2c(NC(=O)c3cccc(C(F)(F)F)c3)nc3cc(C)ccc32)C1 [Example 17-101] = 0.99
• Cc1cccc(C(=O)Nc2nc3cccc(C)c3n2C2CCCCN(C(=O)/C=C/CN(C)C)C2)c1 (centres unmarked) [Example 17-41] = 0.008
